What follows is a collection of IC50 values obtained with human cytochrome P450 3A4-BFC (Homo sapiens, UniProt P08684).
Sequence (P08684 whole entry): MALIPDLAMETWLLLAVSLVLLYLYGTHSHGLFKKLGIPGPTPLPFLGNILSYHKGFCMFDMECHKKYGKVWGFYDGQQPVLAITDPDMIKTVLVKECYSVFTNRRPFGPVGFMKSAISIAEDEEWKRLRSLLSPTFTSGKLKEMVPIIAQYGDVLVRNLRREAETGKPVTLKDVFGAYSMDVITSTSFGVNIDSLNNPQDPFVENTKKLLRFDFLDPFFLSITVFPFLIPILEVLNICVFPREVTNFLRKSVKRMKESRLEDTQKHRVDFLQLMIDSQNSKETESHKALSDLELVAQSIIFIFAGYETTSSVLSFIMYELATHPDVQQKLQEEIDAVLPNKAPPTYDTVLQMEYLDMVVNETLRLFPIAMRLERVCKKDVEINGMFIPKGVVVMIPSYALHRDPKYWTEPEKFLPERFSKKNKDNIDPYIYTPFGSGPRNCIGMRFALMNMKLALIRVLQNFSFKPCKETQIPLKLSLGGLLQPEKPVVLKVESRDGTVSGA
assay.endpoint: IC50 (µM)

# molecule, target.under.test, assay.endpoint, relation, readout.number
rows = [
    ("O=C(COCc1cccnc1)C12CC3CC(CC(C3)C1)C2 [Compound 31]", "human cytochrome P450 3A4-BFC (Homo sapiens, UniProt P08684)", "IC50", "=", 68),
    ("O=C(C[S+]([O-])c1ccncc1)C12CC3CC(CC(C3)C1)C2 (stereo not shown) [Compound 18]", "human cytochrome P450 3A4-BFC (Homo sapiens, UniProt P08684)", "IC50", "=", 12),
    ("O=C(COCc1ccccn1)C12CC3CC(CC(C3)C1)C2 [Compound 28]", "human cytochrome P450 3A4-BFC (Homo sapiens, UniProt P08684)", "IC50", "=", 20),
    ("O=C(CS(=O)(=O)Cc1ccccn1)C12CC3CC(CC(C3)C1)C2 [Compound 43]", "human cytochrome P450 3A4-BFC (Homo sapiens, UniProt P08684)", "IC50", ">", 100),
]
